# ASSAYED_SYSTEM: T1, 4H454-AA
# T1 chain: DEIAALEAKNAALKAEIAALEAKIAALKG
# PROTOCOL_SUMMARY: two-hybrid library CCmax;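 also: natural log of median RNA to DNA barcode read ratio; higher means stronger binding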
# ASSAY_CONDITIONS: mean of both orientations
Under this convention, 1 denotes interaction score strictly below -0.1 and 0 denotes interaction score at or above -0.1.

Use these answered entries as a reference point.
DKNAALKAKIAALKAENAALEAEIAALEG [4H3921-AA]
0
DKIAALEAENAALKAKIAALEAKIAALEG [4H2277-AA]
0

Exam item: Is it true that interaction score reported for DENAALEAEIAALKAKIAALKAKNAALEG [4H1135-AA] is less than -0.1?
Marked response: 1
